Measured half-life, listed per entry for reference.
PROTOCOL NOTES: Pharmacokinetics assay in mice
Assay type: in vivo
TEST CONTEXT: female, mouse, po; C57 mice, intragastric, 2 mg/kg, plasma; read-out: Half-life T1/2 (converted)
READOUT: half-life (h)

1. Cc1cccc([C@@H](CO)NC(=O)[C@@H](C)N2CCn3cc(-c4nc(NC5CCOCC5)ncc4Cl)cc3C2=O)c1 [Example 9-P2]: 1.44
2. COc1cc(F)cc([C@@H](CO)NC(=O)[C@@H](C)N2CCn3cc(-c4nc(NC5CCOCC5)ncc4Cl)cc3C2=O)c1 [Example 4-P2]: 1.07
3. COc1cc(F)cc([C@@H](CO)NC(=O)[C@@H](C)N2CCc3cc(-c4nc(NC5CCOCC5)ncc4Cl)cn3C2=O)c1 [Example 2-P2]: 2.05
4. COc1cc(F)cc([C@@H](CO)NC(=O)[C@@H](C)N2CCc3cc(-c4nc(Nc5ccnn5C)ncc4C)cn3C2=O)c1 [Example 1-P2]: 1.46
5. Cc1cccc([C@@H](CO)NC(=O)[C@@H](C)N2CCc3cc(-c4nc(NC5CCOCC5)ncc4Cl)cn3C2=O)c1 [Example 11-P2]: 0.957
6. COc1cc(F)cc([C@@H](CO)NC(=O)[C@@H](C)N2Cc3cc(-c4nc(NC5CCOCC5)ncc4Cl)cn3C2=O)c1 [Example 6-P2]: 4.74

###

PROTOCOL NOTES: Pharmacokinetics assay in mice
Format: in vivo
TEST CONTEXT: female, mouse, po; C57 mice, intragastric, 2 mg/kg, plasma; read-out: Clearance CLz/F
Measured CL/F, listed per entry for reference.
READOUT: CL/F (mL/min/kg)

1) COc1cc(F)cc([C@@H](CO)NC(=O)[C@@H](C)N2CCn3cc(-c4nc(NC5CCOCC5)ncc4Cl)cc3C2=O)c1 [Example 4-P2]: 35.5
2) COc1cc(F)cc([C@@H](CO)NC(=O)[C@@H](C)N2CCc3cc(-c4nc(Nc5ccnn5C)ncc4C)cn3C2=O)c1 [Example 1-P2]: 29.7
3) COc1cc(F)cc([C@@H](CO)NC(=O)[C@@H](C)N2Cc3cc(-c4nc(NC5CCOCC5)ncc4Cl)cn3C2=O)c1 [Example 6-P2]: 18.9

###

PROTOCOL NOTES: Pharmacokinetics assay in mice
Format: in vivo
TEST CONTEXT: female, mouse, po; C57 mice, intragastric, 2 mg/kg, plasma; read-out: Apparent distribution volume Vz/F
READOUT: Vd/F (L/kg)

1. Cc1cccc([C@@H](CO)NC(=O)[C@@H](C)N2CCc3cc(-c4nc(NC5CCOCC5)ncc4Cl)cn3C2=O)c1 [Example 11-P2]: 3.51
2. Cc1cccc([C@@H](CO)NC(=O)[C@@H](C)N2CCn3cc(-c4nc(NC5CCOCC5)ncc4Cl)cc3C2=O)c1 [Example 9-P2]: 3.14
3. COc1cc(F)cc([C@@H](CO)NC(=O)[C@@H](C)N2CCc3cc(-c4nc(NC5CCOCC5)ncc4Cl)cn3C2=O)c1 [Example 2-P2]: 5.94
4. COc1cc(F)cc([C@@H](CO)NC(=O)[C@@H](C)N2CCc3cc(-c4nc(Nc5ccnn5C)ncc4C)cn3C2=O)c1 [Example 1-P2]: 3.75
5. COc1cc(F)cc([C@@H](CO)NC(=O)[C@@H](C)N2Cc3cc(-c4nc(NC5CCOCC5)ncc4Cl)cn3C2=O)c1 [Example 6-P2]: 7.74
6. COc1cc(F)cc([C@@H](CO)NC(=O)[C@@H](C)N2CCn3cc(-c4nc(NC5CCOCC5)ncc4Cl)cc3C2=O)c1 [Example 4-P2]: 3.29

###

PROTOCOL NOTES: Pharmacokinetics assay in mice
Assay type: in vivo
TEST CONTEXT: female, mouse, po; C57 mice, intragastric, 2 mg/kg, plasma; read-out: Plasma concentration Cmax
READOUT: Cmax (ng/mL)

1. Cc1cccc([C@@H](CO)NC(=O)[C@@H](C)N2CCc3cc(-c4nc(NC5CCOCC5)ncc4Cl)cn3C2=O)c1 [Example 11-P2]: 813
2. Cc1cccc([C@@H](CO)NC(=O)[C@@H](C)N2CCn3cc(-c4nc(NC5CCOCC5)ncc4Cl)cc3C2=O)c1 [Example 9-P2]: 1410
3. COc1cc(F)cc([C@@H](CO)NC(=O)[C@@H](C)N2CCn3cc(-c4nc(NC5CCOCC5)ncc4Cl)cc3C2=O)c1 [Example 4-P2]: 905

###

Notes on IC50 obtained with ERK2 (Homo sapiens, UniProt P28482).
Sequence (P28482 2-360 limits assumed): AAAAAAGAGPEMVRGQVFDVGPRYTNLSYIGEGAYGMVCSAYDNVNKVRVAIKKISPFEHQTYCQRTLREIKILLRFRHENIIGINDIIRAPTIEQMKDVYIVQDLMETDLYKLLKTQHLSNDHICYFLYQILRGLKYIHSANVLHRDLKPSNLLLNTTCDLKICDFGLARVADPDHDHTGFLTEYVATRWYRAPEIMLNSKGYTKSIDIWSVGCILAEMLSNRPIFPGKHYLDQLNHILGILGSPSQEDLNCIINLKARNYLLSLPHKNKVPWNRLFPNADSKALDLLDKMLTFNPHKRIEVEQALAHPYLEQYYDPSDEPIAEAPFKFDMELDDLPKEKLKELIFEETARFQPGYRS
READOUT: IC50 (nM)

1) COc1cc(F)cc([C@@H](CO)NC(=O)[C@H](C)N2CCn3cc(-c4nc(NC5CCOCC5)ncc4Cl)cc3C2=O)c1 [Example 4-P1]: 819
2) COc1cc(F)cc([C@@H](CO)NC(=O)[C@H](C)N2Cc3cc(-c4nc(NC5CCOCC5)ncc4Cl)cn3C2=O)c1 [Example 6-P1]: 2540
3) Cc1cccc([C@@H](CO)NC(=O)[C@H](C)N2CCc3cc(-c4nc(NC5CCOCC5)ncc4Cl)cn3C2=O)c1 [Example 11-P1]: 75
4) Cc1cccc([C@@H](CO)NC(=O)[C@@H](C)N2CCc3cc(-c4nc(NC5CCOCC5)ncc4Cl)cn3C2=O)c1 [Example 11-P2]: 2.1

###

Measured Cmax, listed per entry for reference.
PROTOCOL NOTES: Pharmacokinetics assay in mice
Type: in vivo
TEST CONTEXT: female, mouse, po; C57 mice, intragastric, 2 mg/kg, plasma; read-out: Plasma concentration Cmax
READOUT: Cmax (ng/mL)

1) COc1cc(F)cc([C@@H](CO)NC(=O)[C@@H](C)N2Cc3cc(-c4nc(NC5CCOCC5)ncc4Cl)cn3C2=O)c1 [Example 6-P2]: 1310
2) COc1cc(F)cc([C@@H](CO)NC(=O)[C@@H](C)N2CCc3cc(-c4nc(NC5CCOCC5)ncc4Cl)cn3C2=O)c1 [Example 2-P2]: 867
3) COc1cc(F)cc([C@@H](CO)NC(=O)[C@@H](C)N2CCc3cc(-c4nc(Nc5ccnn5C)ncc4C)cn3C2=O)c1 [Example 1-P2]: 501

###

Measured AUC, listed per entry for reference.
PROTOCOL NOTES: Pharmacokinetics assay in mice
Type: in vivo
TEST CONTEXT: female, mouse, po; C57 mice, intragastric, 2 mg/kg, plasma; read-out: Area under curve AUC
READOUT: AUC (ng·h/mL)

1. COc1cc(F)cc([C@@H](CO)NC(=O)[C@@H](C)N2Cc3cc(-c4nc(NC5CCOCC5)ncc4Cl)cn3C2=O)c1 [Example 6-P2]: 1740
2. Cc1cccc([C@@H](CO)NC(=O)[C@@H](C)N2CCc3cc(-c4nc(NC5CCOCC5)ncc4Cl)cn3C2=O)c1 [Example 11-P2]: 784
3. COc1cc(F)cc([C@@H](CO)NC(=O)[C@@H](C)N2CCc3cc(-c4nc(NC5CCOCC5)ncc4Cl)cn3C2=O)c1 [Example 2-P2]: 994
4. COc1cc(F)cc([C@@H](CO)NC(=O)[C@@H](C)N2CCc3cc(-c4nc(Nc5ccnn5C)ncc4C)cn3C2=O)c1 [Example 1-P2]: 1110
5. Cc1cccc([C@@H](CO)NC(=O)[C@@H](C)N2CCn3cc(-c4nc(NC5CCOCC5)ncc4Cl)cc3C2=O)c1 [Example 9-P2]: 1330
6. COc1cc(F)cc([C@@H](CO)NC(=O)[C@@H](C)N2CCn3cc(-c4nc(NC5CCOCC5)ncc4Cl)cc3C2=O)c1 [Example 4-P2]: 936

###

PROTOCOL NOTES: Pharmacokinetics assay in mice
Type: in vivo
TEST CONTEXT: female, mouse, po; C57 mice, intragastric, 2 mg/kg, plasma; read-out: Clearance CLz/F
Measured CL/F, listed per entry for reference.
READOUT: CL/F

1) COc1cc(F)cc([C@@H](CO)NC(=O)[C@@H](C)N2CCc3cc(-c4nc(NC5CCOCC5)ncc4Cl)cn3C2=O)c1 [Example 2-P2]: 2.01 L/h/kg
2) Cc1cccc([C@@H](CO)NC(=O)[C@@H](C)N2CCc3cc(-c4nc(NC5CCOCC5)ncc4Cl)cn3C2=O)c1 [Example 11-P2]: 2.54 L/h/kg
3) Cc1cccc([C@@H](CO)NC(=O)[C@@H](C)N2CCn3cc(-c4nc(NC5CCOCC5)ncc4Cl)cc3C2=O)c1 [Example 9-P2]: 1.51 L/h/kg

###

Measured MRT, listed per entry for reference.
PROTOCOL NOTES: Pharmacokinetics assay in mice
Type: in vivo
TEST CONTEXT: female, mouse, po; C57 mice, intragastric, 2 mg/kg, plasma; read-out: Residence time MRT
READOUT: MRT (h)

1. COc1cc(F)cc([C@@H](CO)NC(=O)[C@@H](C)N2CCc3cc(-c4nc(NC5CCOCC5)ncc4Cl)cn3C2=O)c1 [Example 2-P2]: 1.08
2. Cc1cccc([C@@H](CO)NC(=O)[C@@H](C)N2CCn3cc(-c4nc(NC5CCOCC5)ncc4Cl)cc3C2=O)c1 [Example 9-P2]: 0.838
3. Cc1cccc([C@@H](CO)NC(=O)[C@@H](C)N2CCc3cc(-c4nc(NC5CCOCC5)ncc4Cl)cn3C2=O)c1 [Example 11-P2]: 1.15
4. COc1cc(F)cc([C@@H](CO)NC(=O)[C@@H](C)N2CCc3cc(-c4nc(Nc5ccnn5C)ncc4C)cn3C2=O)c1 [Example 1-P2]: 1.84
5. COc1cc(F)cc([C@@H](CO)NC(=O)[C@@H](C)N2CCn3cc(-c4nc(NC5CCOCC5)ncc4Cl)cc3C2=O)c1 [Example 4-P2]: 1.07
6. COc1cc(F)cc([C@@H](CO)NC(=O)[C@@H](C)N2Cc3cc(-c4nc(NC5CCOCC5)ncc4Cl)cn3C2=O)c1 [Example 6-P2]: 1.39
